This collection of values is drawn from PubChem BioAssay (NCI).

# growth annotations
- System: KM12 colon
- assay.text: NCI-60 one-dose screen, 48 h (100 = growth as untreated, 0 = no growth, -100 = all killed)
- conditions: 10 µM unless noted
- Experimental: Growth inhibition of the KM12 human tumor cell line is measured as a screen for anti-cancer activity. Cells are grown in 96 well plates and exposed to the test compound for 48 hours. Compounds are tested at a single concentration, which is 10^-5 M for most compounds. The reported endpoint is percent growth (GI% or GIPRCNT), where numbers from 0 - 100% represent growth inhibition, and numbers from -100% - 0 represent cell death. For example, a value of 40 represents 60% growth inhibition. […]
About 83,000 compounds went through this panel and 20% of them were active in at least one assay; those are over-represented in the sample as a whole. Calls of active or inactive are those of the source. Rule for the calls: active = growth percent below 10; inactive = the rest.
measurement.kind: growth

{"columns": ["compound", "reported.measurement"],
 "data": [
  ["COc1cc(-c2nn(-c3cccc(NC(=O)Nc4ccc(Cl)c(Cl)c4)c3)cc2-c2ccncc2)ccc1Cl", "1.3% (active)"],
  ["COc1cc(-c2nn(-c3cccc(NC(=O)c4cccc(C(F)(F)F)c4)c3)cc2-c2ccncc2)ccc1Cl", "13.4% (inactive)"],
  ["CC(C)OC(=O)N1CCOCC1", "100% (inactive)"],
  ["Cc1ccc(S(=O)(=O)NC(=O)n2cc(-c3ccncc3)c(-c3ccc(Cl)c(O)c3)n2)cc1", "118% (inactive)"],
  ["CN(C)CCN1C(=O)c2ccc3c4c(ccc(c24)C1=O)C(=O)N(CCN=C=S)C3=O", "-93% (active)"],
  ["COc1ccc2c(c1)OC1=C(C(=O)OC1)C2c1cc(OC)c2c(c1)OCO2 (stereo not given)", "1.61% (active)"],
  ["CC(C)(C)n1cc(-c2ccnc(NCCNS(=O)(=O)c3ccc(Cl)cc3)c2)c(-c2cccc(O)c2)n1", "42.5% (inactive)"],
  ["CC(C)(C)OC(=O)NCCc1ccc(N=C=S)cc1", "60.8% (inactive)"],
  ["COc1ccc(-c2cc(-c3ccccc3)nc(SCCCC(=O)NO)n2)cc1OC", "13.1% (inactive)"],
  ["COc1cccc(/C=C2\\Oc3cc(OCCCN4CCCC4)ccc3C2=O)c1OC", "102% (inactive)"]
]}
